# method-description: chemical genetic growth profiling, strain panel (AID 1159580);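 also: tested at 20 µM; growth read once vehicle control cultures reached saturation at 30 °C; 1 = growth at the plate median or of vehicle wells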
# conditions-used: S. cerevisiae deletion strains, growth OD, locus YGR078C, strain PAC10, hits give low values
The whole screen tested about 5,500 compounds, of which about 2,000 (36%) were called active. Another 18% or so got no clear call; they are omitted. The list shows a part of the results.
Rule for this label: 1.0 means normalized growth is less than 1; 0.0 means normalized growth is at least 1.

Consider the following illustrative entries.
compound: NC1CCc2cc(O)c(O)cc2C1 (stereo not drawn)
classification: 0.0
--
compound: NC(=NCCCCCCN=C(N)N=C(N)Nc1ccc(Cl)cc1)N=C(N)Nc1ccc(Cl)cc1
classification: 1.0
--
compound: CNC(=O)Oc1ccccc1OC(C)C
classification: 0.0
--
compound: ClC1C(Cl)C(Cl)C(Cl)C(Cl)C1Cl (stereo not drawn)
classification: 1.0
--
compound: N#Cc1cc(I)c(C#N)c(I)c1
classification: 1.0

Problem: Hello, I'm reviewing records and need to know if normalized growth of COc1ccc(Oc2ccc(C(F)(F)F)cc2[N+](=O)[O-])cc1 is below 1. Could you check?
Result: 1.0

Problem: Hello, I'm reviewing records and need to know if normalized growth of Cc1cc(Oc2c([N+](=O)[O-])cc(C(F)(F)F)cc2[N+](=O)[O-])c2c(Cl)ccc(C)c2n1 is below 1. Could you check?
Result: 1.0

###

# method-description: chemical genetic growth profiling, strain panel (AID 1159580)
# conditions-used: S. cerevisiae deletion strains, growth OD, locus YDL028C, strain MPS1, hits give low values
The whole screen tested about 5,500 compounds, of which about 2,000 (36%) were called active. Another 18% or so got no clear call; they are omitted. This is one part of the list.
recorded-metric: normalized growth
Write the number on its own, no unit after it.

Would you please look over these solved cases?
compound: COC(=S)Nc1cc(Cl)cc(Cl)c1
normalized growth: 0.939
//
compound: S=C(NCCc1csc2ccccc12)Nc1ccc(Cl)cc1
normalized growth: 0.942
//
compound: S=C(NCc1cccs1)Nc1cc(Cl)cc(Cl)c1
normalized growth: 0.944
//
compound: CC(C)Sc1c(Cl)cccc1NC(=O)Nc1cccc(C(F)(F)F)c1
normalized growth: 0.979
//
compound: FC(F)(F)c1c2c(nc3cc(-c4ccco4)nn13)CCC2
normalized growth: 0.971
//
compound: COc1ccc(OC)c2nc3c(nc12)C(=O)c1ccccc1-3
normalized growth: 0.984
//
compound: O=C(Nc1cc(Cl)cc(Cl)c1)c1cc(Br)ccc1O
normalized growth: 0.955
//
compound: O=C(/C=C/c1ccc(Cl)cc1)Nc1cccc(Cl)c1
normalized growth: 0.951

Problem: Look up normalized growth for this compound: COc1cc(C2CC(=S)Nc3ccccc3S2)cc(OC)c1OC (stereo not given)
Result: 0.981

Problem: Look up normalized growth for this compound: O=C(Nc1ccc(F)cc1)c1cc(Br)ccc1O
Result: 0.909

Problem: Look up normalized growth for this compound: N#CC(C(=O)Nc1cccc(C(F)(F)F)c1)C(=S)Nc1ccccc1Cl (stereo not given)
Result: 1

Problem: Look up normalized growth for this compound: O=C(NCc1ccc2c(c1)OCO2)c1cc2ccccc2s1
Result: 0.9

Problem: Look up normalized growth for this compound: Cn1ncc(-c2nc(-c3ccc(Cl)cc3)cs2)c1N
Result: 0.94

Problem: Look up normalized growth for this compound: Cc1cc2nc3c(Cl)c(O)c4ccccc4c3nc2cc1C
Result: 0.959

Problem: Look up normalized growth for this compound: CC(C)OC(=O)Nc1cc(Cl)cc(Cl)c1
Result: 0.996

###

# method-description: chemical genetic growth profiling, strain panel (AID 1159580)
# conditions-used: S. cerevisiae deletion strains, growth OD, locus YDR159W, strain sac3, hits give low values
Among all 5,500 compounds or so, about 2,000 (36%) were called active. Another 18% or so got no clear call; they are omitted. Some of the results follow.
The following molecules are listed with their measured normalized growth values.
Write the number on its own, no unit after it.

molecule: NC(Cc1ccc(Cl)cc1)C(=O)O (centres undefined)
normalized growth: 0.976
--
molecule: CC(=O)O[C@@H]1C2CC[C@@H]3C1(C[C@@H](O)[C@@]1(O)[C@@H](C[C@H](O)C1(C)C)[C@]3(C)O)C[C@@]2(C)O (some centres undefined)
normalized growth: 0.995
--
molecule: Oc1cccc2cccnc12
normalized growth: 0.616
--
molecule: O=C(O)c1cccnc1C(=O)O
normalized growth: 0.986
--
molecule: O=C(Nc1ccc([N+](=O)[O-])cc1Cl)c1cc(Cl)ccc1O
normalized growth: 0.785
--
molecule: CCCC(=O)Nc1ccc(OCC(O)CNC(C)C)c(C(C)=O)c1 (centres undefined)
normalized growth: 0.984
--
molecule: CC(=O)OC1CCC23CC1(C)CCC2C(C)(C)CC3OC(C)=O (centres undefined)
normalized growth: 1.03
--
molecule: COC(=O)CC1C(C)(C(=O)c2ccoc2)CC2OCC34C(CC(=O)OC)C5(C)CC36OC3(C)OC1(C(OC(C)=O)C6(OC(C)=O)C5OC(=O)C(C)C)C24O3 (centres undefined)
normalized growth: 0.968

Problem: Look up normalized growth for this molecule: O=C(/C=C/c1ccccc1)c1ccc(O)cc1O
Result: 0.0941

Problem: Look up normalized growth for this molecule: O=C(/C=C/c1ccc(O)cc1)c1ccc(O)cc1O
Result: 0.99

###

# method-description: chemical genetic growth profiling, strain panel (AID 1159580);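 also: tested at 20 µM; growth read once vehicle control cultures reached saturation at 30 °C; 1 = growth at the plate median or of vehicle wells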
# conditions-used: S. cerevisiae deletion strains, growth OD, locus YMR307W, strain GAS1, hits give low values
Out of some 5,500 compounds screened, about 2,000 (36%) were called active. Not shown: some 18% with an inconclusive outcome. The list shows a part of the results.
Rule for this label: Criterion met means normalized growth is less than 1; Criterion not met means normalized growth is at least 1.

entry-smiles: COc1ccc(Oc2ccc(C(F)(F)F)cc2[N+](=O)[O-])cc1
classification: Criterion met

Note: attention shifts to another entry.
Problem: Hello, I'm reviewing records and need to know if normalized growth of O=[N+]([O-])c1cc(C(F)(F)F)ccc1Oc1cc(C(F)(F)F)cc(C(F)(F)F)c1 is below 1. Could you check?
Result: Criterion not met

###

# method-description: chemical genetic growth profiling, strain panel (AID 1159580);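 also: tested at 20 µM; growth read once vehicle control cultures reached saturation at 30 °C; 1 = growth at the plate median or of vehicle wells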
# conditions-used: S. cerevisiae deletion strains, growth OD, locus YER111C, strain swi4
Hit rate of the full screen: of about 5,500 compounds, about 2,000 (36%) were called active. Inconclusive results (about 18%) are left out. Cut-off read from the data, not from the text of the source: active = normalized growth mostly below about 0.91 (no sharp cut-off); inconclusive = no clear call, values can overlap the other calls; inactive = mostly above about 0.92. This is one part of the list.
Your response should consist of one outcome taken from class 1 (active), class 0 (inactive)

Consider the following illustrative entries.
molecule: CNC(=O)N(C)c1nnc(C(C)(C)C)s1
classification: class 0

molecule: CC(=O)OC[C@@]1(O)C[C@@]23CCC4c5ccoc5CC[C@]4(C)C2CC[C@@H]1C3 (stereo partly specified)
classification: class 0

molecule: O=C(/C=C/c1ccccc1)c1ccc(O)cc1O
classification: class 1

molecule: O=C(/C=C/c1ccccc1)c1ccc(O[C@@H]2O[C@H](CO)[C@@H](O)[C@H](O)[C@H]2O)cc1O
classification: class 0

molecule: O=C1C=CC(=O)c2c(O)c(Cl)c(Cl)c(O)c21
classification: class 0

molecule: O=c1c(O)c(-c2ccccc2)oc2cccc(O)c12
classification: class 1

molecule: CCCc1ncc(C[n+]2ccccc2C)c(N)n1
classification: class 0

molecule: NS(=O)(=O)c1cc2c(cc1Cl)NCNS2(=O)=O
classification: class 0

molecule: O=C(/C=C/c1ccc(O)cc1)c1ccc(O)cc1O
classification: class 0

molecule: CCC[C@@H]1C[C@@H](C(=O)N[C@H]([C@H]2O[C@H](SC)[C@H](O)[C@@H](O)[C@H]2O)[C@H](C)O)N(C)C1
classification: class 0

Note: attention shifts to another entry.
Problem: Recorded test outcome, item O=C(/C=C/c1ccc(O)cc1)c1ccccc1O
Result: class 1

###

# method-description: chemical genetic growth profiling, strain panel (AID 1159580);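 also: tested at 20 µM; growth read once vehicle control cultures reached saturation at 30 °C; 1 = growth at the plate median or of vehicle wells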
# conditions-used: S. cerevisiae deletion strains, growth OD, locus YHR142W, strain chs7, hits give low values
Screen size: about 5,500 compounds; about 2,000 (36%) were called active. About 18% were inconclusive and are not listed. Some of the results follow.
Rule for this label: fulfilled means normalized growth is less than 1; not fulfilled means normalized growth is at least 1.

Problem: Hello, I'm reviewing records and need to know if normalized growth of CC(C)C1CCC(C(=O)N[C@@H](Cc2ccccc2)C(=O)O)CC1 (some centres undefined) is below 1. Could you check?
Result: fulfilled

Problem: Hello, I'm reviewing records and need to know if normalized growth of C/C(=C\CO)CC[C@H](C)CCC[C@H](C)CCCC(C)C is below 1. Could you check?
Result: not fulfilled

Problem: Hello, I'm reviewing records and need to know if normalized growth of O=C1NS(=O)(=O)c2ccccc21 is below 1. Could you check?
Result: not fulfilled
